Data provenance is PubChem BioAssay (NCI).

# Tested on: KM12 colon
# Experiment Notes: NCI tumour cell line growth inhibition, 48 h
*1 amine or outer side, *2 acyl side, *3 side chain or, on linkers, in order; H or OH if unused. Where a SMILES comes first, the peptide text is derived from it. [ ]: non-standard residue; d: D form. ξ: configuration not given here. X21 = CC[C@@H](C)C(N[*:1])C(=O)[*:2]; ξR = N=C(N)NCCCC(N)C(=O)O; ξI = CCC(C)C(N)C(=O)O; ξL = CC(C)CC(N)C(=O)O; ξK = NCCCCC(N)C(=O)O; ξV = CC(C)C(N)C(=O)O; ξA = CC(N)C(=O)O
Assign TGI to each entry below.
Give the value in µM but do not write µM after it.

Data request: For KM12 colon, give the measured TGI of the entry CCC(C)C1NC(=O)C(CC(C)C)NC(=O)C(C)NC(=O)C(C(C)C)NC(=O)C(CCCCN)NC(=O)C(CC(C)C)NC(=O)C(C(C)C)NC(=O)[C@H](C)NC(=O)C(C(C)CC)NC(=O)C(CCCN=C(N)N)NC(=O)C(CCCCN)NC(=O)C(CCCN=C(N)N)NC(=O)C(CCCCN)NC(=O)C([C@H](C)CC)NC(=O)C(CCCCN)NC1=O (stereo partly drawn) (cyclo(A[ξV][ξL][ξK][ξV][ξA][ξL][ξI][ξK][X21][ξK][ξR][ξK][ξR][ξI]))
Data returned: 3.9

Data request: For KM12 colon, give the measured TGI of the entry `COc1cc(/C=C(\OC(C)=O)c2ccc3c(c2)OCO3)cc(OC)c1OC`
Data returned: 48.7

Data request: For KM12 colon, give the measured TGI of the entry `O=C1NN(c2ccccc2)C(=O)/C1=C/c1ccc(Br)o1`
Data returned: 24

Data request: For KM12 colon, give the measured TGI of the entry `Clc1ncc(Cl)c(Cl)n1`
Data returned: 22.9

Data request: For KM12 colon, give the measured TGI of the entry `CNCCCNCCCN1C(=O)c2ccc3c4c(ccc(c24)C1=O)C(=O)N(CCCNCc1ccccc1OC)C3=O`
Data returned: 3.36

Data request: For KM12 colon, give the measured TGI of the entry `c1ccc(N=C2SC3=NCCN3C2=Nc2ccccc2)cc1`
Data returned: 29.7

Data request: For KM12 colon, give the measured TGI of the entry `O=c1cc(N=Nc2ccc(Cl)cc2)[nH]c(=O)[nH]1`
Data returned: 10.6

Data request: For KM12 colon, give the measured TGI of the entry `C=C1C(=O)O[C@H]2[C@H]1CC/C(COC(=O)c1ccccc1)=C\CC[C@@]1(C)O[C@@H]21`
Data returned: 8.42

Data request: For KM12 colon, give the measured TGI of the entry `CC(=O)Oc1ccc(/C=C/C(=O)O[C@H]2CCCC[C@@H]2OC(=O)/C=C/c2ccc(OC(C)=O)c(OC(C)=O)c2)cc1OC(C)=O`
Data returned: 60.2

Data request: For KM12 colon, give the measured TGI of the entry COC1=C(Br)C(=O)C2=C(C1=O)C1C3=C(C(=O)C=CC3=O)C2c2ccccc21 (stereo not drawn)
Data returned: 32.1

Data request: For KM12 colon, give the measured TGI of the entry O=C1CCS/C(=N\S(=O)(=O)c2ccc(N3N=C4c5ccccc5CC4C3c3cccs3)cc2)N1C(=O)c1ccccc1 (stereo not drawn)
Data returned: 83.1

Data request: For KM12 colon, give the measured TGI of the entry `C=C(C(=O)OC)c1cc2ccccc2n1S(=O)(=O)c1ccccc1`
Data returned: 5.99

Data request: For KM12 colon, give the measured TGI of the entry `Cc1c2c(cc3c(=O)ccn(CCN(C)C)c13)c(=O)ccn2CCN(C)C`
Data returned: 13.9

Data request: For KM12 colon, give the measured TGI of the entry `COc1ccc(N(C)c2c3ccccc3nc3[nH]c4ccccc4c23)cc1`
Data returned: 1.24

Data request: For KM12 colon, give the measured TGI of the entry `S=c1nc(N2CCCCC2)ss1`
Data returned: 33.9

Data request: For KM12 colon, give the measured TGI of the entry `O=C(Nc1cccc(-n2cc(-c3ccncc3)c(-c3ccc(O)c(Cl)c3)n2)c1)Nc1cccc(C(F)(F)F)c1`
Data returned: 3.48

Data request: For KM12 colon, give the measured TGI of the entry `COc1ccc2c(c1)/C(=C/c1cc(OC)c(OC)c(OC)c1)C(=O)N2C`
Data returned: 4.95
